system: ALS7 (C9orf72) cell-derived motor neurons; test: RNA foci inhibitory activity (FISH with Cy3 probe, high-content analysis); assay type: cell-based, human; conditions: 10 μM test compound, one day after addition, vs DMSO
measured quantity: RNA foci inhibitory activity %
Give me the value, and tack the unit on after it.

Below are worked cases with known answers.
{"compound": "CCOC(=O)N=S(C)(=O)Cc1cccc(Nc2ncnc(-c3cccc4c3OCC4)n2)c1 (stereo not shown)", "recorded result": "43%"}
{"compound": "COc1cc(Cl)ccc1-c1ncnc(Nc2cccc(CS(N)(=O)=O)c2)n1", "recorded result": "51%"}
{"compound": "CCOC(=O)N=S(C)(=O)Cc1cccc(Nc2ncnc(-c3cccc4c3OCCO4)n2)c1 (stereo not shown)", "recorded result": "48%"}

Consider the record given below.
IN: Give the reported RNA foci inhibitory activity % for NS(=O)(=O)Cc1cccc(Nc2ncnc(-c3ccccc3OCc3ccccc3)n2)c1 (system: ALS7 (C9orf72) cell-derived motor neurons).
OUT: 47%

---

tested on: ALS7 (C9orf72) cell-derived motor neurons; assay: Cytotoxicity: intracellular ATP level (CellTiter-Glo); format: cell-based, human; conditions: After 24 hr, 3 μM
Each entry below carries its reported ATP level % compared to negative control.
Dear colleague, please return just the value in %, with no unit written.

{"molecule": "NS(=O)(=O)Cc1cccc(Nc2ncnc(-c3ccccc3OCc3ccccc3)n2)c1", "measured quantity": "ATP level % compared to negative control", "recorded result": 121}
{"molecule": "CCOC(=O)N=S(C)(=O)Cc1cccc(Nc2ncnc(-c3cccc4c3OCC4)n2)c1 (centres unmarked)", "measured quantity": "ATP level % compared to negative control", "recorded result": 105}
{"molecule": "COc1ccccc1-c1ncnc(Nc2cccc(CS(N)(=O)=O)c2)n1", "measured quantity": "ATP level % compared to negative control", "recorded result": 89}
{"molecule": "CS(=N)(=O)Cc1cccc(Nc2ncnc(-c3ccccc3OCc3ccc(Cl)c(Cl)c3)n2)c1 (centres unmarked)", "measured quantity": "ATP level % compared to negative control", "recorded result": 118}
{"molecule": "CCOC(=O)N=S(C)(=O)Cc1cccc(Nc2ncnc(-c3cccc4c3OCCO4)n2)c1 (centres unmarked)", "measured quantity": "ATP level % compared to negative control", "recorded result": 107}
{"molecule": "COc1cc(Cl)ccc1-c1ncnc(Nc2cccc(CS(N)(=O)=O)c2)n1", "measured quantity": "ATP level % compared to negative control", "recorded result": 97}
{"molecule": "COc1cc(F)ccc1-c1ncnc(Nc2cccc(CS(C)(=N)=O)c2)n1 (centres unmarked)", "measured quantity": "ATP level % compared to negative control", "recorded result": 107}

Here is another molecule to look at.
IN: Quick check: ATP level % compared to negative control of NS(=O)(=O)Cc1cccc(Nc2ncnc(-c3ccccc3OCc3ccccc3)n2)c1.O=C(O)C(F)(F)F ?
OUT: 128

---

test system: ALS7 (C9orf72) cell-derived motor neurons; assay: Cytotoxicity: intracellular ATP level (CellTiter-Glo); assay type: cell-based, human; conditions: After 24 hr, 1 μM
We begin with a simple list: items and their reported ATP level % compared to negative control.
Your answer should be a plain number; it is taken to be in %.

# count of solved cases: 5
{"compound": "COc1cc(F)ccc1-c1ncnc(Nc2cccc(CS(C)(=N)=O)c2)n1 (centres unmarked)", "target system": "ALS7 (C9orf72) cell-derived motor neurons", "measured quantity": "ATP level % compared to negative control", "recorded result": 92}
{"compound": "NS(=O)(=O)Cc1cccc(Nc2ncnc(-c3ccccc3OCc3ccccc3)n2)c1.O=C(O)C(F)(F)F", "target system": "ALS7 (C9orf72) cell-derived motor neurons", "measured quantity": "ATP level % compared to negative control", "recorded result": 113}
{"compound": "CCOC(=O)N=S(C)(=O)Cc1cccc(Nc2ncnc(-c3cccc4c3OCC4)n2)c1 (centres unmarked)", "target system": "ALS7 (C9orf72) cell-derived motor neurons", "measured quantity": "ATP level % compared to negative control", "recorded result": 89}
{"compound": "COc1cc(Cl)ccc1-c1ncnc(Nc2cccc(CS(N)(=O)=O)c2)n1", "target system": "ALS7 (C9orf72) cell-derived motor neurons", "measured quantity": "ATP level % compared to negative control", "recorded result": 104}
{"compound": "CCOC(=O)N=S(C)(=O)Cc1cccc(Nc2ncnc(-c3cccc4c3OCCO4)n2)c1 (centres unmarked)", "target system": "ALS7 (C9orf72) cell-derived motor neurons", "measured quantity": "ATP level % compared to negative control", "recorded result": 89}

IN: For NS(=O)(=O)Cc1cccc(Nc2ncnc(-c3ccccc3OCc3ccccc3)n2)c1 , what is its reported ATP level % compared to negative control?
OUT: 105

IN: # get_value(readout='ATP level % compared to negative control', item= CS(=N)(=O)Cc1cccc(Nc2ncnc(-c3ccccc3OCc3ccc(Cl)c(Cl)c3)n2)c1 (centres unmarked) )
OUT: 98

IN: // lookup ATP level % compared to negative control for COc1ccccc1-c1ncnc(Nc2cccc(CS(N)(=O)=O)c2)n1
OUT: 98
